Molecular target: NADPH oxidase 2 (Homo sapiens) (UniProt P04839)
Sequence (P04839 whole entry, looked up): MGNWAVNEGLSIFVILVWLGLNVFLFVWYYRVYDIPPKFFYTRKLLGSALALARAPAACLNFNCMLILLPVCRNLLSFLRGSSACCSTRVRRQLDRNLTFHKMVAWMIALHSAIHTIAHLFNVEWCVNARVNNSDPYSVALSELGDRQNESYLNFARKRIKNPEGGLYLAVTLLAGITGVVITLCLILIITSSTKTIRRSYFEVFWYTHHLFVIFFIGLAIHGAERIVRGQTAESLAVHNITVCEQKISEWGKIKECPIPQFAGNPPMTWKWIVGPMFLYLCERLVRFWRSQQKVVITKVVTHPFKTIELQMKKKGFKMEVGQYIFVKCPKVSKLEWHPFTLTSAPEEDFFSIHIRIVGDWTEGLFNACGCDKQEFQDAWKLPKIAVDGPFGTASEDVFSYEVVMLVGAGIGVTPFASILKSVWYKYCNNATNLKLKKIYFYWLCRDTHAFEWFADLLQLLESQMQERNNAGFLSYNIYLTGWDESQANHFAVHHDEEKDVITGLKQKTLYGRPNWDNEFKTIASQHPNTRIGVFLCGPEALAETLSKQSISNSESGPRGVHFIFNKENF
Assay: compounds shifting NOX2 Amplex Red fluorescence – cell-based, HEK293-NOX2, PMA-stimulated, NOX inhibitor project, primary screen (AID 1159); also: test concentration not given here
Settings: 45 min, higher = more signal, called active from +8 up or from −8 down
Use 0.4 as the dividing line for z-score, with the line itself on the rule met side and lower values as rule not met.

> print(dat)
                                   compound         class
1  COCCCNC(=O)[C@@]1(Cc2ccccc2I)c2ccccc2C(=O)N(Cc2ccccc2)[C@H]1c1ccc(CO)cc1  rule not met
2  COc1ccccc1CN1C(=O)c2ccccc2[C@](Cc2ccccc2I)(C(=O)NC2CC2)[C@@H]1c1ccc(CO)cc1  rule not met
3  CC1CC/C=C\[C@H]2OC34C=CCN(CCN5CCOCC5)C(=O)[C@H]3N(CCCCCO)C(=O)[C@@H]4C2C(=O)O1 (stereo not given in full)      rule met
4  CCOC(=O)C1=CC[C@@H](c2cccc(Cl)c2)N(S(=O)(=O)c2ccc(C)cc2)[C@H]1c1ccc(C#N)cc1      rule met

Measured values drawn from PubChem BioAssay for this set.
